Test system: NEK6
Details: concentration: 1 μM, replicates: in singlicate; n = 1;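 note: KINOMEscan kinase panel screen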
PROPERTY MEASURED: %Inh (%)
Give bare numbers, in %.

Example results:
CC(C)c1nc(-c2cccc(NS(=O)(=O)c3c(F)cccc3F)c2F)c(-c2ccnc(Nc3ccc(N4CCOCC4)nc3)n2)s1 [GSK2008607]    99.1
COc1cc2c(cc1OCCN1CCNCC1)ncc1c3ccc(C#N)cc3[nH]c21    15
CCc1ccc(-c2ccc3c(c2)-c2c(cnn2C)S(=O)(=O)N3C)cc1    0
Cl.Cl.NCC(C(=O)Nc1cc(Br)c(-c2ccnc3[nH]ccc23)s1)c1ccccc1 (stereo not drawn) [GSK1269851]    0
C[C@@H](Oc1cc(-n2cnc3cc(-c4ccnc(NCCS(C)(=O)=O)c4)ccc32)sc1C(N)=O)c1ccccc1Cl [GSK907232]    4
CNC(=O)c1ccccc1Nc1nc(Nc2ccc(N3CCOCC3)cc2)ncc1Cl.Cl [GSK1576028]    98.6
CC(C)(C)c1ccc2nccc(Nc3cccc(O)c3)c2c1 [GW856795]    0
CN(C)S(=O)(=O)c1cc(-c2ccc3nccc(-c4cccc(S(N)(=O)=O)c4)c3c2)cnc1N [GSK1669921]    0

Please turn your attention to the following entry.
Input: I have this compound here, COc1cccc(C(=O)Nc2cccc(Oc3ccc4nc(NC(=O)C5CC5)cn4n3)c2)c1 , and I need its recorded %Inh.
Output: 5

###

Test system: EPHA1
Conditions: concentration: 1 μM, replicates: in singlicate; n = 1
Give measured %Inh for each item. Keep answers brief.
Answers are plain numbers, in %.

Give %Inh for each of the items listed below.
1. CCc1ccc(-c2ccc3c(c2)-c2c(cnn2C)S(=O)(=O)N3C)cc1
2. COc1cc(Nc2nccc(N3CCC(NC(=O)c4cc5ccccc5s4)C3)n2)cc(OC)c1OC (stereo not drawn)
3. c1ccc(-c2cnc3nccnn23)cc1
4. CC(=O)N1CCN(c2ccc(Nc3nccc(-c4sc(C(C)C)nc4-c4cccc(NS(=O)(=O)c5cccc(Cl)c5)c4)n3)cn2)CC1
5. COCCOCCOc1cc2ncc3c4ccc(C#N)cc4[nH]c3c2cc1OC
6. Cl.c1ccc(-c2ccc3c(Nc4ccc5[nH]ncc5c4)ccnc3c2)nc1
7. CN(C)S(=O)(=O)c1cc(-c2ccc3nccc(-c4cccc(S(N)(=O)=O)c4)c3c2)cnc1N

Output:
1. 0
2. 3
3. 0
4. 71
5. 15
6. 32
7. 10

###

Tested on: PCTK3
Construct: gene CDK18
Settings: concentration: 1 μM, replicates: in singlicate; n = 1
PROPERTY MEASURED: %Inh (%)
Give bare numbers, in %.

Example results:
Fc1ccc(-c2ncn(C3CCNCC3)c2-c2ccnc(Oc3ccc(-c4ccccc4)cc3)n2)cc1    2
C[C@@H](Oc1cc(-n2cnc3cc(-c4ccnc(NCCS(C)(=O)=O)c4)ccc32)sc1C(N)=O)c1ccccc1Cl    25
Cc1cccc(Nc2nc(N[C@H]3CCNC3)ncc2C(N)=O)c1.Cl    34

Give %Inh for each of the items listed below.
1. Cc1occc1-c1ncc(OC[C@@H](N)Cc2c[nH]c3ccccc23)cc1-c1ccc2[nH]nc(C)c2c1.O=C(O)C(F)(F)F
2. CCn1c(-c2nonc2N)nc2c(C#CC(C)(C)O)ncc(OCCCCN)c21.O=C(O)C(F)(F)F.O=C(O)C(F)(F)F
3. COc1ccc(CNC(=O)NC2CCN(c3ccnc(Nc4ccc(F)cc4)n3)CC2)cc1

Output:
1. 0
2. 0
3. 0

Give %Inh for each of the items listed below.
1. Cn1cc(-c2[nH]c3cc(NC(=O)[C@H](N)C4CCCCC4)cc4c3c2C=NNC4=O)cn1
2. Cl.Cl.NCC(NC(=O)c1cc(-c2ccccc2)c(-c2ccnc3[nH]ccc23)s1)c1ccccc1 (stereo not drawn)
3. Nc1n[nH]c2cnc(-c3ccccc3)cc12
4. CCc1ccc(-c2ccc3c(c2)-c2c(cnn2C)S(=O)(=O)N3C)cc1
5. Cc1ccc(C(=O)Nc2ccc(Nc3ccnc4cc(-c5nccs5)ccc34)cc2O)cc1.Cl
6. c1ccc(-c2cnc3nccnn23)cc1
7. Cc1ccc(C(=O)N2CC[C@@H](O)C2)cc1-n1c(C)cc(OCc2ccc(F)cc2F)c(Br)c1=O

Output:
1. 0
2. 0
3. 10
4. 0
5. 0
6. 15
7. 7

Give %Inh for each of the items listed below.
1. CC(=O)Nc1nc2cnc(Nc3cc(NC(=O)c4cccc(C5(C#N)CC5)c4Cl)ccc3C)nc2s1
2. CN(C)Cc1ccc(-c2ccc3c(Nc4ccc(Oc5ccccn5)cc4)ccnc3c2)o1
3. CCCCc1nn2ncccc2c1-c1ccnc(Nc2ccc(N3CCN(C)CC3)cc2)n1
4. COc1cccc(C2=C(Nc3ccc(Cl)c(C(=O)O)c3)C(=O)NC2=O)c1
5. Cc1ccc(F)c(C(=O)Nc2cccc(-c3nn4ccccc4c3-c3ccnc(Nc4cccc(F)c4)n3)c2)c1F
6. COc1ccc(Nc2nccc(NCCNC(=O)c3cc4ccccc4s3)n2)cc1
7. CNC(=O)c1ccccc1Nc1nc(Nc2ccc(N3CCOCC3)cc2)ncc1Cl.Cl
8. Cl.Cl.NCC(NCc1ccc(-c2ccnc3[nH]ccc23)s1)c1ccccc1 (stereo not drawn)

Output:
0
0
16
29
16
0
0
0

###

Test system: JAK3(JH1domain-catalytic)
Conditions: concentration: 1 μM, replicates: in singlicate; n = 1
PROPERTY MEASURED: %Inh (%)
One number for each entry, in %.

COc1cccc(C2=C(Nc3ccc(Cl)c(C(=O)O)c3)C(=O)NC2=O)c1    81
O=C(Nc1n[nH]c2cc(-c3ccoc3)ccc12)C1CC1    0
Cl.c1ccc(-c2ccc3c(Nc4ccc5[nH]ccc5c4)ccnc3c2)nc1    0

Give %Inh for each of the items listed below.
1. O=c1[nH]cc(-c2ccc(N3CCOCC3)cc2)c2sc(-c3cn[nH]c3)cc12
2. CN1CCN(CCCNc2nccc(-c3c(-c4ccc(F)cc4)nn4cc(C(F)(F)F)ccc34)n2)CC1
3. COc1cc2c(cc1OCCN1CCNCC1)ncc1c3ccc(C#N)cc3[nH]c21
4. c1ccc(-c2cnc3nccnn23)cc1

Output:
[39, 0, 85, 0]

###

Give measured %Inh for each item. Keep answers brief.
Test system: DAPK2
Details: concentration: 1 μM, replicates: in singlicate; n = 1

Example results:
COc1ccc(Nc2nccc(N3CCC(NC(=O)Nc4cccc(OC)c4)C3)n2)cc1 (centres unmarked) [GSK1379742]    0%
c1ccc(-c2cnc3nccnn23)cc1 [AH20685]    0%
Cn1cc(-c2[nH]c3cc(NC(=O)[C@H](N)C4CCCCC4)cc4c3c2C=NNC4=O)cn1    98.7%
COc1cccc(C2=C(Nc3ccc(Cl)c(C(=O)O)c3)C(=O)NC2=O)c1 [SB-390769]    0%
COc1ccc(Nc2nccc(NCCNC(=O)c3cc4ccccc4s3)n2)cc1 [GSK1379896]    2%

Give %Inh for each of the items listed below.
1. COc1cccc(NC(=O)NC2CCN(c3ccnc(Nc4cc(OC)c(OC)c(OC)c4)n3)C2)c1 (centres unmarked) [GSK1379763]
2. CCn1c(-c2nonc2N)nc2c(C#CC(C)(C)O)ncc(OCCCCN)c21.O=C(O)C(F)(F)F.O=C(O)C(F)(F)F [GSK507274]
3. COCCOCCOc1cc2ncc3c4ccc(C#N)cc4[nH]c3c2cc1OC

Output:
1: 0%; 2: 10%; 3: 7%

###

Give measured %Inh for each item. Keep answers brief.
Tested on: ERK1
Construct: gene MAPK3
Conditions: concentration: 1 μM, replicates: in singlicate; n = 1
Give bare numbers, in %.

Example results:
COc1cccc(C2=C(Nc3ccc(Cl)c(C(=O)O)c3)C(=O)NC2=O)c1 [SB-390769]    10
O=C(Nc1cccc(-c2nn3ncccc3c2-c2ccnc(Nc3ccccc3)n2)c1)c1c(F)cccc1F [GSK198271]    0

Please turn your attention to the following entry.
Input: I have this molecule here, c1ccc(-c2cnc3nccnn23)cc1 [AH20685] , and I need its recorded %Inh.
Output: 8

###

Tested on: EGFR
Conditions: concentration: 1 μM, replicates: in singlicate; n = 1
PROPERTY MEASURED: %Inh (%)
Give bare numbers, in %.

Give %Inh for each of the items listed below.
1. COc1ccc(Nc2nccc(N3CCC(NC(=O)Nc4cccc(OC)c4)C3)n2)cc1 (stereo not shown) [GSK1379742]
2. COc1ccc(Nc2nccc(NCCNC(=O)c3cc4ccccc4s3)n2)cc1 [GSK1379896]
3. CC(=O)Nc1nc2cnc(Nc3cc(NC(=O)c4cccc(C5(C#N)CC5)c4Cl)ccc3C)nc2s1
4. C[C@@H](Oc1cc(-n2cnc3cc(-c4ccnc(NCCS(C)(=O)=O)c4)ccc32)sc1C(N)=O)c1ccccc1Cl [GSK907232]
5. Clc1ccc(-c2nn3ncccc3c2-c2ccnc(Nc3ccc4c(c3)OCCO4)n2)cc1 [GW829116]
6. O=C(NC1CCN(c2ccnc(Nc3ccc(F)cc3)n2)C1)c1cc2ccccc2s1 (stereo not shown) [GSK1379716]
7. Cn1cc(-c2ccc3c(c2)CCN3C(=O)Cc2cccc(F)c2)c2c(N)ncnc21 [GSK2603358]
8. Cc1cccc(NC(=O)Nc2ccc(Oc3ncnc4ccn(C)c34)cc2)c1

Output:
20
19
0
35
84
22
35
1

Give %Inh for each of the items listed below.
1. Cl.Cl.NCC(NCc1ccc(-c2ccnc3[nH]ccc23)s1)c1ccccc1 (stereo not shown) [GSK1321565]
2. O=C(Nc1n[nH]c2cc(-c3ccoc3)ccc12)C1CC1 [SB-738481]
3. Cl.Cl.NCC(NC(=O)c1cc(-c2ccccc2)c(-c2ccnc3[nH]ccc23)s1)c1ccccc1 (stereo not shown) [GSK1321561]
4. CCc1ccc(-c2ccc3c(c2)-c2c(cnn2C)S(=O)(=O)N3C)cc1
5. COc1cc(Nc2nccc(-c3c(-c4cccc(NC(=O)c5c(F)cccc5F)c4)nn4ncccc34)n2)cc(OC)c1OC [GSK327238]
6. c1ccc(-c2n[nH]cc2Nc2ccnc3ccccc23)nc1 [GW694077]

Output:
1: 24; 2: 6; 3: 84; 4: 15; 5: 100; 6: 15

Give %Inh for each of the items listed below.
1. Cn1cc(-c2[nH]c3cc(NC(=O)[C@H](N)C4CCCCC4)cc4c3c2C=NNC4=O)cn1
2. CNC(=O)c1ccccc1Nc1nc(Nc2ccc(N3CCOCC3)cc2)ncc1Cl.Cl [GSK1576028]
3. Cl.c1ccc(-c2ccc3c(Nc4ccc5[nH]ncc5c4)ccnc3c2)nc1 [GW440137]
4. Oc1cc(Nc2ccnc3cc(I)ccc23)ccc1F [GW552771]
5. O=c1[nH]cc(-c2ccc(N3CCOCC3)cc2)c2sc(-c3cn[nH]c3)cc12 [GSK2276055]
6. COc1cccc(NC(=O)NC2CCN(c3ccnc(Nc4cc(OC)c(OC)c(OC)c4)n3)C2)c1 (stereo not shown) [GSK1379763]

Output:
81
98.8
66
32
18
12

Give %Inh for each of the items listed below.
1. O=C(O)C(F)(F)F.O=C(O)C(F)(F)F.O=c1[nH]ccc2nc(N[C@@H]3CCCNC3)nc(Nc3ccc(S(=O)(=O)N4CCOCC4)cc3)c12 [GSK2177277]
2. CC(=O)N1CCN(c2ccc(Nc3nccc(-c4sc(C(C)C)nc4-c4cccc(NS(=O)(=O)c5cccc(Cl)c5)c4)n3)cn2)CC1 [GSK1660437]

Output:
[45, 86]

Data origin, for the record: paper PMC5540273
